# condition_context: in 1,2-dichloroethane, 273.15 K
measurement_name: solubility (mole fraction)

Request: Give the measured solubility (mole fraction) for Oc1ccccc1C=N[C@@H]1CCCC[C@H]1N=Cc1ccccc1O
Response: 0.0862

----------
# condition_context: in n-propanol, 308.15 K
measurement_name: solubility (mole fraction)
Could you keep your reply to the number by itself?

Request: Give the measured solubility (mole fraction) for Oc1ccccc1C=N[C@@H]1CCCC[C@H]1N=Cc1ccccc1O
Response: 0.00452

----------
# condition_context: in acetonitrile, 298.15 K
measurement_name: solubility (mole fraction)
Could you keep your reply to the number by itself?

Request: Give the measured solubility (mole fraction) for Oc1ccccc1C=N[C@@H]1CCCC[C@H]1N=Cc1ccccc1O
Response: 0.0122

----------
# condition_context: in toluene, 313.15 K
measurement_name: solubility (mole fraction)
Could you keep your reply to the number by itself?

Request: Give the measured solubility (mole fraction) for Oc1ccccc1C=N[C@@H]1CCCC[C@H]1N=Cc1ccccc1O
Response: 0.149

----------
# condition_context: in n-propanol, 278.15 K
measurement_name: solubility (mole fraction)

Request: Give the measured solubility (mole fraction) for Oc1ccccc1C=N[C@@H]1CCCC[C@H]1N=Cc1ccccc1O
Response: 0.00125

----------
# condition_context: in 1,2-dichloroethane, 298.15 K
measurement_name: solubility (mole fraction)
Could you keep your reply to the number by itself?

Request: Give the measured solubility (mole fraction) for Oc1ccccc1C=N[C@@H]1CCCC[C@H]1N=Cc1ccccc1O
Response: 0.15

----------
# condition_context: in THF, 293.15 K
measurement_name: solubility (mole fraction)
Could you keep your reply to the number by itself?

Request: Give the measured solubility (mole fraction) for Oc1ccccc1C=N[C@@H]1CCCC[C@H]1N=Cc1ccccc1O
Response: 0.186

----------
# condition_context: in ethanol, 313.15 K
measurement_name: solubility (mole fraction)
Could you keep your reply to the number by itself?

Request: Give the measured solubility (mole fraction) for Oc1ccccc1C=N[C@@H]1CCCC[C@H]1N=Cc1ccccc1O
Response: 0.00452

----------
# condition_context: in ethanol, 288.15 K
measurement_name: solubility (mole fraction)
Could you keep your reply to the number by itself?

Request: Give the measured solubility (mole fraction) for Oc1ccccc1C=N[C@@H]1CCCC[C@H]1N=Cc1ccccc1O
Response: 0.00153

----------
# condition_context: in n-propanol, 298.15 K
measurement_name: solubility (mole fraction)
Could you keep your reply to the number by itself?

Request: Give the measured solubility (mole fraction) for Oc1ccccc1C=N[C@@H]1CCCC[C@H]1N=Cc1ccccc1O
Response: 0.00303

----------
# condition_context: in ethyl acetate, 303.15 K
measurement_name: solubility (mole fraction)

Request: Give the measured solubility (mole fraction) for Oc1ccccc1C=N[C@@H]1CCCC[C@H]1N=Cc1ccccc1O
Response: 0.0691

----------
# condition_context: in n-hexane, 288.15 K
measurement_name: solubility (mole fraction)
Could you keep your reply to the number by itself?

Request: Give the measured solubility (mole fraction) for Oc1ccccc1C=N[C@@H]1CCCC[C@H]1N=Cc1ccccc1O
Response: 0.00131

----------
# condition_context: in dichloromethane, 313.15 K
measurement_name: solubility (mole fraction)

Request: Give the measured solubility (mole fraction) for Oc1ccccc1C=N[C@@H]1CCCC[C@H]1N=Cc1ccccc1O
Response: 0.229

----------
# condition_context: in ethyl acetate, 273.15 K
measurement_name: solubility (mole fraction)
Could you keep your reply to the number by itself?

Request: Give the measured solubility (mole fraction) for Oc1ccccc1C=N[C@@H]1CCCC[C@H]1N=Cc1ccccc1O
Response: 0.0241

----------
# condition_context: in THF, 288.15 K
measurement_name: solubility (mole fraction)
Could you keep your reply to the number by itself?

Request: Give the measured solubility (mole fraction) for Oc1ccccc1C=N[C@@H]1CCCC[C@H]1N=Cc1ccccc1O
Response: 0.169

----------
# condition_context: in dichloromethane, 298.15 K
measurement_name: solubility (mole fraction)
Could you keep your reply to the number by itself?

Request: Give the measured solubility (mole fraction) for Oc1ccccc1C=N[C@@H]1CCCC[C@H]1N=Cc1ccccc1O
Response: 0.18

----------
# condition_context: in dichloromethane, 288.15 K
measurement_name: solubility (mole fraction)

Request: Give the measured solubility (mole fraction) for Oc1ccccc1C=N[C@@H]1CCCC[C@H]1N=Cc1ccccc1O
Response: 0.154

----------
# condition_context: in methyl acetate, 293.15 K
measurement_name: solubility (mole fraction)
Could you keep your reply to the number by itself?

Request: Give the measured solubility (mole fraction) for Oc1ccccc1C=N[C@@H]1CCCC[C@H]1N=Cc1ccccc1O
Response: 0.0436

----------
# condition_context: in methanol, 278.15 K
measurement_name: solubility (mole fraction)
Could you keep your reply to the number by itself?

Request: Give the measured solubility (mole fraction) for Oc1ccccc1C=N[C@@H]1CCCC[C@H]1N=Cc1ccccc1O
Response: 0.000645

----------
# condition_context: in methanol, 283.15 K
measurement_name: solubility (mole fraction)
Could you keep your reply to the number by itself?

Request: Give the measured solubility (mole fraction) for Oc1ccccc1C=N[C@@H]1CCCC[C@H]1N=Cc1ccccc1O
Response: 0.000817

----------
# condition_context: in ethanol, 283.15 K
measurement_name: solubility (mole fraction)

Request: Give the measured solubility (mole fraction) for Oc1ccccc1C=N[C@@H]1CCCC[C@H]1N=Cc1ccccc1O
Response: 0.00123

----------
# condition_context: in dichloromethane, 273.15 K
measurement_name: solubility (mole fraction)
Could you keep your reply to the number by itself?

Request: Give the measured solubility (mole fraction) for Oc1ccccc1C=N[C@@H]1CCCC[C@H]1N=Cc1ccccc1O
Response: 0.117

----------
# condition_context: in toluene, 308.15 K
measurement_name: solubility (mole fraction)

Request: Give the measured solubility (mole fraction) for Oc1ccccc1C=N[C@@H]1CCCC[C@H]1N=Cc1ccccc1O
Response: 0.129

----------
# condition_context: in THF, 303.15 K
measurement_name: solubility (mole fraction)
Could you keep your reply to the number by itself?

Request: Give the measured solubility (mole fraction) for Oc1ccccc1C=N[C@@H]1CCCC[C@H]1N=Cc1ccccc1O
Response: 0.221
